Answer each item with its documented GI50.
- Test system: SNB-19
- ASSAY: NCI tumour cell line growth inhibition, 48 h
Active and inactive are the calls of the source. Cut-off read from the data, not from the text of the source: active = GI50 up to about 1.1 µM and inactive = higher.

Give the measured GI50 of Cc1cc(C)[n+]2c(c1)C=CC2.[O-][Cl+3]([O-])([O-])[O-] . 42.7 µM (inactive)

// lookup GI50 for CC(=O)OC[C@@H](OC(C)=O)[C@H](OC(C)=O)[C@@H]1OC(C)(C)O[C@@H]1C1SCCCS1 > 100 µM (inactive)

Recorded GI50 of O=c1[nH]c(=O)n(C2CC(O)C(CO)O2)cc1C#Cc1cc(F)cc(F)c1 (stereo not given) , please. > 100 µM (inactive)

Given O=C(N/N=C/c1ccc([N+](=O)[O-])cc1)c1cccc2nc3ccccc3nc12 , state its recorded GI50. > 55.8 µM (inactive)

Requested field: GI50. Item: COc1ccc([C@@H]2ON(C)[C@H]3CN(C)C(=O)[C@@H]23)cc1 > 100 µM (inactive)

* * *

- Test system: RXF 393
- ASSAY: NCI tumour cell line growth inhibition, 48 h
Calls of active or inactive are those of the source. Rule as the data show it: active = GI50 up to about 1.1 µM and inactive = higher.
Respond with a class label; see 1 (yes) = active, 0 (no) = inactive

Which outcome was assigned to CN(N=O)C(=O)N[C@H]1C(O)O[C@H](CO)[C@@H](O)[C@@H]1O (some centres undefined) in this test? 0 (no)

Call for entry O=c1/c(=C/c2ccc(Cl)cc2Cl)sc2nc3ccccc3n12 : 0 (no)

Please let me know the test result on file for CC(=O)OCc1cccc(O)c1C(=O)CCC=C(C)C . 0 (no)

Hi, sorry to bother you, what did the test record for O=C1C=CC2(C=C1)C[C@H](NC(=O)OCc1ccccc1)C(=O)O2 ? 0 (no)

What did this assay record as the result for CC(C)/C=C1\CCC(CN2CCCC2)C1=O (centres undefined) ? 0 (no)

For CC(=O)OC[C@@H](OC(C)=O)[C@H](OC(C)=O)[C@@H]1OC(C)(C)O[C@@H]1C1SCCCS1 , what call appears in the results of this test? 0 (no)

I would be grateful if you could indicate the recorded call for C/C(N)=N/OCc1nc(C)no1 . 0 (no)

Could you kindly confirm the outcome this assay logged for C#CCn1c(=O)c2cc(OC)c(OC)cc2n(CC#C)c1=O ? 0 (no)

What was the test verdict on COc1ccc(/C=C2\CCC(CCN(C)C)(C3=CCCC3)C2=O)cc1Br (centres undefined) ? 0 (no)

Each compound tested received a call. Report the one for CC(=O)N[C@@H](Cc1ccc(O)cn1)C(=O)NCc1cccc(Cl)c1 . 0 (no)

Identify the outcome logged in this assay for the compound shown: O=C1Sc2ccccc2C(=O)N2CSCC12 (centres undefined) 0 (no)

Per the assay record, what outcome was assigned to COc1cccc(N2C(=O)C3CC(CC(C)(C)C)c4c([nH]c5ccccc45)C3C2=O)c1 (centres undefined) ? 0 (no)

Check the results log: what was the call for Cc1cc(C)c(C2=NOC(c3ccccc3)(c3cc(=O)n(-c4ccccc4)s3)O2)c(C)c1 (centres undefined) ? 0 (no)

What outcome does the record of this test show for COc1cnc2cc(C(=O)O)c3c([N+](=O)[O-])cccc3c2c1 ? 0 (no)

I'd appreciate the recorded outcome for [O-][S+]1Cc2ccccc2CSS1 (centres undefined) from this test. 0 (no)

Please let me know the test result on file for COc1c2c(c3ccccc3c1O)C1C=CC2C1 (centres undefined) . 0 (no)

Returns: the outcome recorded for O=C1N=C(Nc2ccccc2Cl)SC1C(=O)Nc1ccc([N+](=O)[O-])cc1[N+](=O)[O-] (centres undefined) in this assay. 0 (no)

Recorded call for COc1ccc(/C=C2/CSC/C(=C/c3ccc(OC)c(OC)c3)C2=O)cc1OC ? 0 (no)

State the result this test recorded for COc1ccc(C2(CN(C)C)COc3cc(OC)c(OC)cc3C2=O)cc1OC (centres undefined) . 0 (no)

So what was the verdict on CCOC(=O)/C=C1/Nc2cc(F)c(F)cc2NC1=O in this test? 0 (no)

Record lookup: outcome of this test for CCCCCC(/C=C/[C@@H]1[C@H]2CC(=O)O[C@H]2C[C@H]1N1CCOCC1)OC1CCCO1 (some centres undefined) ? 0 (no)

Record request — test call for O=Nc1ccc(O)c2ncccc12 0 (no)

# fetch the recorded call for O=C1CC2(CCN(Cc3ccccc3)CC2)C(=O)N1N1CCCCC1 here 0 (no)

I would be grateful if you could indicate the recorded call for CN(C)c1ccc(/C=C2\N=C(NN)NC2=O)cc1 . 0 (no)

GET /call?item= Cc1cc2c(cc1-c1cc3c(cc1C)C(C(C)C)=C(O)C(=O)/C3=C\NCC1CCCN3CCCCC13)/C(=C/NCC1CCCN3CCCCC13)C(=O)C(O)=C2C(C)C (centres undefined) returns the recorded outcome of this test. 0 (no)

Identify the outcome logged in this assay for the compound shown: COc1cc(OC)cc(-c2nc3cc(F)ccc3s2)c1 0 (no)

Hi team, can someone confirm the assay call for Cc1ccc(/N=N/c2cc(=O)[nH]c(=O)[nH]2)cc1C ? 0 (no)

What call does the record list for COc1ccccc1NCc1nnc(CCCCCCCCc2nnc(CNc3ccccc3OC)o2)o1 ? 0 (no)

Hi, sorry to bother you, what did the test record for CN(C)C(Cc1c[nH]cn1)C(=O)N1CCCC1C(N)=O (centres undefined) ? 0 (no)

Call for entry Cc1cc(O)nc(NN2C(Cl)C(=O)C2c2ccco2)n1 (centres undefined) : 0 (no)

Call for entry CCOC(=O)C1=CN=C2C(=O)N(c3ccccc3)N(C)C2(C)C1=N (centres undefined) : 0 (no)

What is the recorded call for this compound in the test? COc1cc2c(cc1OC)C(C(CBr)CBr)N(C1CCCC1)CC2 (centres undefined) 0 (no)

What is the recorded call for this compound in the test? [Se]=P(c1ccccc1)(c1ccccc1)c1ccc(C(c2ccccc2)=P(c2ccccc2)(c2ccccc2)c2ccccc2)cc1 0 (no)

Kindly provide the recorded test outcome for the following compound: C1=N\CCNCC/N=C/c2ccccc2OCc2cccc(n2)COc2ccccc2/1 0 (no)

Assay result, entry O=C1C=C(c2ccccc2)O/C1=C/C(=O)c1ccc(Cl)cc1 — outcome? 0 (no)

Short answer needed: outcome of this test for COc1cc2c(c(O)c1O)C(=O)C1CCC(=O)N1C2c1cccc2ccccc12 (centres undefined) ? 0 (no)

// return assay outcome for CCCC(Sc1ccccc1)P(=O)(c1ccccc1)c1ccccc1 (centres undefined) 0 (no)

Answer briefly: the call reported for C/C=C1\C(=O)O[C@H]2C/C(C)=C/CC/C(C)=C/CC[C@@]3(C)O[C@@H]3C[C@@H]12 in this assay. 0 (no)

Status in this test for CC1CN(CCO)CCN1c1ccccc1 (centres undefined) ? 0 (no)

Field: outcome | Entry: COC(=O)C1=CCS(=O)(=O)C1 0 (no)

Please state the recorded outcome for this compound: CCOc1cn(C2OC(CO)C(O)C2O)c(=O)[nH]c1=O (centres undefined) 0 (no)

// param item: CC(C)(C)C(=O)OCC1CCC[N+]2(C)CCCCC12 (centres undefined) ; yields the recorded call 0 (no)

Query: recorded result category for COC(=O)C1C(=O)C(C(=O)OC)C2CCC1N2C (centres undefined) in this test 0 (no)

So what was the verdict on Cc1nc2c(O)cc3c4c([nH]c3c2nc1C)C(=O)CCC4 in this test? 1 (yes)
